Experiment: clinical
Conditions: human, in vivo, iv

>  <smiles-representation>
CN(C)CCCN1c2ccccc2Sc2ccc(Cl)cc21

>  <clearance (mL/min/kg)>
18.3

$$$$

###

Assay: clinical
Conditions: human, in vivo, po

>  <compound>
CC(C)C(=O)Nc1ccc([N+](=O)[O-])c(C(F)(F)F)c1 [FLUTAMIDE]

>  <CL/F>
> 600 mL/min/kg

$$$$

###

Assay: Fraction unbound in psychiatric patient treated with clozapine
Type: ADME, organism-based
Settings: human, in vivo
property-measured: fraction unbound

>  <smiles-representation>
Clc1ccc2c(c1)N=C(N1CCNCC1)c1ccccc1N2

>  <recorded-measurement>
0.097

$$$$
